Entry source: PubChem BioAssay (NCI)

- Test system: PC-3 prostate
- procedure.text: NCI-60 one-dose screen, 48 h (100 = growth as untreated, 0 = no growth, -100 = all killed)
- condition.label: 10 µM unless noted
The panel holds about 83,000 compounds, 20% with a hit somewhere; the sample as a whole holds those more often.
Kindly apply the following: MET if growth is less than 80%, NOT MET in every other case.

> print(dat)
                                   compound  category.label
1  c1ccc([Se]CCCN2CCN(CCC[Se]c3ccccc3)CC2)cc1         NOT MET

Query: Lab log: compare recorded growth with 80%; is it strictly lower for Cc1ccc(-c2cn3cc([N+](=O)[O-])ccc3n2)cc1 ?
Result: MET

Query: Lab log: compare recorded growth with 80%; is it strictly lower for O=C1CCC(c2c(O)cc(O)c3c(=O)c(O)c(-c4ccc(O)c(O)c4)oc23)N1 (stereo not given) ?
Result: NOT MET

Query: Lab log: compare recorded growth with 80%; is it strictly lower for CC1=C2C(=C[C@@](C)(CO)[C@@H]2OC(=O)N(C)CCN(C)C(=O)OC(C)(C)C)C(=O)[C@](C)(O)C12CC2 ?
Result: MET
